# target or system: UniProt O54798
# Sequence (O54798 whole entry): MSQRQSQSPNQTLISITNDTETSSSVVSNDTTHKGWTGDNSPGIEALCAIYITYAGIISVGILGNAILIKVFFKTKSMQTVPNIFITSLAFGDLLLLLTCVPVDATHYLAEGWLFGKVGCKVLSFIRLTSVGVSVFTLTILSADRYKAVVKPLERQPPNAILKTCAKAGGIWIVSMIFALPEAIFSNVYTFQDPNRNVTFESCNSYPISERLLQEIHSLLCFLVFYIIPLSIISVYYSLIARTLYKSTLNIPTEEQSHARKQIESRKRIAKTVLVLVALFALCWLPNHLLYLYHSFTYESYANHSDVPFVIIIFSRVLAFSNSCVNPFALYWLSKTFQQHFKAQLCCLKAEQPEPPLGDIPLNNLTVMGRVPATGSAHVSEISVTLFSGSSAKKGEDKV
# test name: Agonist activity at mouse BRS3 expressed in human HEK293AEQ cells measured for 10 mins by aequorin bioluminescence assay
quantity: EC50 (nM)

Example compounds with recorded EC50:
[
  {
    "structure string": "CC(C)(O)c1nc(C2(c3cccc4c3N(S(=O)(=O)c3ccc(OC(F)(F)F)cc3)Cc3ccc(C(F)(F)F)nc3N4)CCC2)no1",
    "display unit": "nM",
    "EC50": 76
  },
  {
    "structure string": "CC(C)(O)c1nc(C(C)(C)c2cccc3c2N(S(=O)(=O)c2ccc(OC(F)(F)F)cc2)Cc2ccc(C(F)(F)F)nc2N3)no1",
    "display unit": "nM",
    "EC50": 67
  },
  {
    "structure string": "CNC(=O)C1(c2cccc3c2N(S(=O)(=O)c2ccc(OC(F)(F)F)cc2)Cc2ccc(C(F)(F)F)nc2N3)CCC1",
    "display unit": "nM",
    "EC50": 22
  },
  {
    "structure string": "CC(C)(C(N)=O)c1cccc2c1N(S(=O)(=O)c1ccc(OC(F)(F)F)cc1)Cc1ccc(C(F)(F)F)nc1N2",
    "display unit": "nM",
    "EC50": 27
  }
]

(P) NC(=O)C1(c2cccc3c2N(S(=O)(=O)c2ccc(OC(F)(F)F)cc2)Cc2ccc(C(F)(F)F)nc2N3)CCC1
(Q) CC(C)(O)c1nc(-c2cccc3c2N(S(=O)(=O)c2ccc(OC(F)(F)F)cc2)Cc2ccc(C(F)(F)F)nc2N3)no1
Hey, between P and Q which has a smaller measured EC50? Answer format: the label of the selected item.
P

---

# test name: Half life in Sprague-Dawley rat at 0.5 mg/kg, iv
# Type: ADME, organism-based
# Design: dose 0.5 mg/kg, route intravenous
# measurement context: in vivo
quantity: half-life (h)

[
  {
    "structure string": "CC(C)(O)c1nc(C2(c3cccc4c3N(S(=O)(=O)c3ccc(OC(F)(F)F)cc3)Cc3ccc(C(F)(F)F)nc3N4)CCC2)no1",
    "display unit": "h",
    "half-life": 2.9
  },
  {
    "structure string": "CC(C)(C(N)=O)c1cccc2c1N(S(=O)(=O)c1ccc(OC(F)(F)F)cc1)Cc1ccc(C(F)(F)F)nc1N2",
    "display unit": "h",
    "half-life": 1.6
  }
]

(a) CC(C)(O)c1nc(-c2cccc3c2N(S(=O)(=O)c2ccc(OC(F)(F)F)cc2)Cc2ccc(C(F)(F)F)nc2N3)no1
(b) CNC(=O)C1(c2cccc3c2N(S(=O)(=O)c2ccc(OC(F)(F)F)cc2)Cc2ccc(C(F)(F)F)nc2N3)CCC1
Hey, between a and b which has a smaller measured half-life? Answer format: the label of the selected item.
b

(1) NC(=O)C1(c2cccc3c2N(S(=O)(=O)c2ccc(OC(F)(F)F)cc2)Cc2ccc(C(F)(F)F)nc2N3)CCC1
(2) CC(C)(O)c1nc(C(C)(C)c2cccc3c2N(S(=O)(=O)c2ccc(OC(F)(F)F)cc2)Cc2ccc(C(F)(F)F)nc2N3)no1
Hey, between 1 and 2 which has a smaller measured half-life? Answer format: the label of the selected item.
1

---

# Tested on: Rattus norvegicus
# test name: Dose normalized AUC in Sprague-Dawley rat at 1 mg/kg, po
# Type: ADME, organism-based
# Parameters: dose 1 mg/kg, route oral
# measurement context: in vivo
quantity: AUC/dose (µM·kg·h/mg)

[
  {
    "structure string": "CC(C)(O)c1nc(C2(c3cccc4c3N(S(=O)(=O)c3ccc(OC(F)(F)F)cc3)Cc3ccc(C(F)(F)F)nc3N4)CCC2)no1",
    "target or system": "Rattus norvegicus",
    "AUC/dose, µM·kg·h/mg": 0.6
  },
  {
    "structure string": "NC(=O)C1(c2cccc3c2N(S(=O)(=O)c2ccc(OC(F)(F)F)cc2)Cc2ccc(C(F)(F)F)nc2N3)CCC1",
    "target or system": "Rattus norvegicus",
    "AUC/dose, µM·kg·h/mg": 0.3
  }
]

(A) CC(C)(O)c1nc(-c2cccc3c2N(S(=O)(=O)c2ccc(OC(F)(F)F)cc2)Cc2ccc(C(F)(F)F)nc2N3)no1
(B) CC(C)(C(N)=O)c1cccc2c1N(S(=O)(=O)c1ccc(OC(F)(F)F)cc1)Cc1ccc(C(F)(F)F)nc1N2
(C) CNC(=O)C1(c2cccc3c2N(S(=O)(=O)c2ccc(OC(F)(F)F)cc2)Cc2ccc(C(F)(F)F)nc2N3)CCC1
(D) CC(C)(O)c1nc(C(C)(C)c2cccc3c2N(S(=O)(=O)c2ccc(OC(F)(F)F)cc2)Cc2ccc(C(F)(F)F)nc2N3)no1
In this exercise, place the 4 compounds in ascending sequence of their recorded AUC/dose. Returns: the labels listed in the requested order.
B, C, A, D

---

# test name: Oral bioavailability in Sprague-Dawley rat at 1 mg/kg
# Format: ADME, organism-based
# measurement context: in vivo
quantity: bioavailability (%)

Example compounds with recorded bioavailability:
[
  {
    "structure string": "CC(C)(O)c1nc(C2(c3cccc4c3N(S(=O)(=O)c3ccc(OC(F)(F)F)cc3)Cc3ccc(C(F)(F)F)nc3N4)CCC2)no1",
    "display unit": "%",
    "result number": 49
  },
  {
    "structure string": "CNC(=O)C1(c2cccc3c2N(S(=O)(=O)c2ccc(OC(F)(F)F)cc2)Cc2ccc(C(F)(F)F)nc2N3)CCC1",
    "display unit": "%",
    "result number": 60
  },
  {
    "structure string": "CC(C)(C(N)=O)c1cccc2c1N(S(=O)(=O)c1ccc(OC(F)(F)F)cc1)Cc1ccc(C(F)(F)F)nc1N2",
    "display unit": "%",
    "result number": 31
  },
  {
    "structure string": "CC(C)(O)c1nc(C(C)(C)c2cccc3c2N(S(=O)(=O)c2ccc(OC(F)(F)F)cc2)Cc2ccc(C(F)(F)F)nc2N3)no1",
    "display unit": "%",
    "result number": 100
  }
]

(1) CC(C)(O)c1nc(-c2cccc3c2N(S(=O)(=O)c2ccc(OC(F)(F)F)cc2)Cc2ccc(C(F)(F)F)nc2N3)no1
(2) NC(=O)C1(c2cccc3c2N(S(=O)(=O)c2ccc(OC(F)(F)F)cc2)Cc2ccc(C(F)(F)F)nc2N3)CCC1
Hey, between 1 and 2 which has a smaller measured bioavailability? Answer format: the label of the selected item.
2
(2: 32%, 1: 93%)

---

# target or system: Bombesin receptor subtype-3 (Homo sapiens, UniProt P32247)
# Sequence (P32247 whole entry): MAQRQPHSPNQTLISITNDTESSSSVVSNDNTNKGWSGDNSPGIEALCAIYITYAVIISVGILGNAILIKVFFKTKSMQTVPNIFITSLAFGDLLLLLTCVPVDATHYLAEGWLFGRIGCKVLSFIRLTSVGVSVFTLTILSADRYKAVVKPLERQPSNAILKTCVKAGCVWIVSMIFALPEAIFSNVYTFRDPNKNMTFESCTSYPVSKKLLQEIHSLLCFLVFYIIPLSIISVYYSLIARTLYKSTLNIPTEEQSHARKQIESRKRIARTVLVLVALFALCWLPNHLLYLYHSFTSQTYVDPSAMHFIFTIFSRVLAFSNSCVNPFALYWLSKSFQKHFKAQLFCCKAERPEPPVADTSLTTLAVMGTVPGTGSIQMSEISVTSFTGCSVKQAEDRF
# test name: Agonist activity at human BRS3 expressed in human HEK293AEQ cells measured for 10 mins by aequorin bioluminescence assay
pEC50: −log10 of the molar value.
quantity: pEC50

(1) CC(C)(O)c1nc(C(C)(C)c2cccc3c2N(S(=O)(=O)c2ccc(OC(F)(F)F)cc2)Cc2ccc(C(F)(F)F)nc2N3)no1
(2) CC(C)(C(N)=O)c1cccc2c1N(S(=O)(=O)c1ccc(OC(F)(F)F)cc1)Cc1ccc(C(F)(F)F)nc1N2
Which has the higher pEC50, 1 or 2 ? Answer format: the label of the selected item.
2
(2: 7.59, 1: 7.19)

(1) NC(=O)C1(c2cccc3c2N(S(=O)(=O)c2ccc(OC(F)(F)F)cc2)Cc2ccc(C(F)(F)F)nc2N3)CCC1
(2) CC(C)(O)c1nc(-c2cccc3c2N(S(=O)(=O)c2ccc(OC(F)(F)F)cc2)Cc2ccc(C(F)(F)F)nc2N3)no1
Which has the higher pEC50, 1 or 2 ? Answer format: the label of the selected item.
1
(1: 7.68, 2: 7.14)

(P) CNC(=O)C1(c2cccc3c2N(S(=O)(=O)c2ccc(OC(F)(F)F)cc2)Cc2ccc(C(F)(F)F)nc2N3)CCC1
(Q) CC(C)(O)c1nc(C2(c3cccc4c3N(S(=O)(=O)c3ccc(OC(F)(F)F)cc3)Cc3ccc(C(F)(F)F)nc3N4)CCC2)no1
Hey, between P and Q which has a smaller measured pEC50? Answer format: the label of the selected item.
Q
(Q: 7.09, P: 7.82)
